Origin of the recorded values: the supplement of paper PMC10307832

# Tested on: HCC-827
# Measurement description: relative viability (nuclei count vs DMSO), 5 days (fraction); higher = more cells survive
# Run parameters: first compound 0.6325 µM
Measurement label: relative viability
# print the numeric value only

As a guide, the following entries are already answered.
{"columns": ["Compound", "Experimental result"],
 "data": [
  ["Cc1csc(=NC2CCCCC2)n1/N=C/c1ccc(O)c(O)c1O [MIM1] + CC(=O)c1c(C)c2cnc(Nc3ccc(N4CCNCC4)cn3)nc2n(C2CCCC2)c1=O [Palbociclib] (partner 0.5 µM)", 0.511],
  ["CN1CCN(CCOc2cc(OC3CCOCC3)c3c(Nc4c(Cl)ccc5c4OCO5)ncnc3c2)CC1 [Saracatinib] + O=C(CCCCCCC(=O)Nc1ccccc1)NO [Vorinostat] (partner 1 µM)", 0.354]
]}

Query compound follows.
Input line: Can you look up the measured relative viability of Cc1csc(=NC2CCCCC2)n1/N=C/c1ccc(O)c(O)c1O [MIM1] + CS(=O)(=O)CCNCc1ccc(-c2ccc3ncnc(Nc4ccc(OCc5cccc(F)c5)c(Cl)c4)c3c2)o1 [Lapatinib] (partner 2 µM) for me?
Output line: 0.181

---

# Test system: NCI-H1355
# Measurement description: relative viability (nuclei count vs DMSO), 5 days (fraction); higher = more cells survive
# Run parameters: first compound 0.003162 µM
True if relative viability is below 0.7. False if not; exact matches included in False.

{"columns": ["Compound", "System tested", "Label"],
 "data": [
  ["Cc1cn(-c2cc(NC(=O)c3ccc(C)c(Nc4nccc(-c5cccnc5)n4)c3)cc(C(F)(F)F)c2)cn1 [Nilotinib] + Cc1cc(Nc2cc(N3CCN(C)CC3)nc(Sc3ccc(NC(=O)C4CC4)cc3)n2)n[nH]1 [Tozasertib] (partner 0.1 µM)", "NCI-H1355", "True"]
]}

Input line: API: query returns whether the compound falls strictly under 0.7 in relative viability. Query: Cc1cn(-c2cc(NC(=O)c3ccc(C)c(Nc4nccc(-c5cccnc5)n4)c3)cc(C(F)(F)F)c2)cn1 [Nilotinib] + Nc1ncn([C@H]2C[C@H](O)[C@@H](CO)O2)c(=O)n1 [Decitabine] (partner 2 µM)
Output line: True

Input line: API: query returns whether the compound falls strictly under 0.7 in relative viability. Query: Cc1cn(-c2cc(NC(=O)c3ccc(C)c(Nc4nccc(-c5cccnc5)n4)c3)cc(C(F)(F)F)c2)cn1 [Nilotinib] + CC(C)C[C@H](NC(=O)[C@H](Cc1ccccc1)NC(=O)c1cnccn1)B(O)O [Bortezomib] (partner 0.002 µM)
Output line: False

---

# System: LXF-289
# Measurement description: relative viability (nuclei count vs DMSO), 5 days (fraction); higher = more cells survive
# Run parameters: first compound 8 µM
Measurement label: relative viability
# print the numeric value only

{"columns": ["Molecule", "relative viability"],
 "data": [
  ["Nc1cccc2c1CN(C1CCC(=O)NC1=O)C2=O (stereo not drawn) [Lenalidomide] + CC(C)C[C@H](NC(=O)[C@H](Cc1ccccc1)NC(=O)c1cnccn1)B(O)O [Bortezomib] (partner 0.002 µM)", 1.08],
  ["Nc1cccc2c1CN(C1CCC(=O)NC1=O)C2=O (stereo not drawn) [Lenalidomide] + COc1cc2c(Oc3ccc(NC(=O)C4(C(=O)Nc5ccc(F)cc5)CC4)cc3F)ccnc2cc1OCCCN1CCOCC1 [Foretinib] (partner 0.25 µM)", 1.09]
]}

Query molecule follows.
Input line: Can you look up the measured relative viability of Nc1cccc2c1CN(C1CCC(=O)NC1=O)C2=O (stereo not drawn) [Lenalidomide] + CC1(C)CCC(c2ccc(Cl)cc2)=C(CN2CCN(c3ccc(C(=O)NS(=O)(=O)c4ccc(N[C@H](CCN5CCOCC5)CSc5ccccc5)c(S(=O)(=O)C(F)(F)F)c4)cc3)CC2)C1 [Navitoclax] (partner 0.5 µM) for me?
Output line: 1.06
